# tested_target: T1, rat calcitonin receptor (rat, UniProt P32214 25-516)
# T1 construct: whole, on cells; In cell membranes prepared from transiently transfected BHK tk'ts 13 cells (Assay VIII); also called rCTR; rat calcitonin (a) receptor
# T1 sequence (looked up): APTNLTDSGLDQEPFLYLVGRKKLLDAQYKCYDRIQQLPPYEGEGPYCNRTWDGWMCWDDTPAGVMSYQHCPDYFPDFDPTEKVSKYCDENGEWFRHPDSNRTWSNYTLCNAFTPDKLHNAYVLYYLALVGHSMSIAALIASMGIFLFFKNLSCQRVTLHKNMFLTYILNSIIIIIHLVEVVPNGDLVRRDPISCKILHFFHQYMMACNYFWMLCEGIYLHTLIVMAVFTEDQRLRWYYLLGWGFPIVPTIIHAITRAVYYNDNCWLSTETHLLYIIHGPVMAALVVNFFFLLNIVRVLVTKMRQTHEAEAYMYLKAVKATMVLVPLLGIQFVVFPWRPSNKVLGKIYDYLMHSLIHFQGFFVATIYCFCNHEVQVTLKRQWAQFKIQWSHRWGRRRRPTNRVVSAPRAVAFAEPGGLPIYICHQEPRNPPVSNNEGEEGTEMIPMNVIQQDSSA
# method_description: SPA competition binding, displacement of 125I-Calcitonin from membranes of BHK tk'ts 13 cells with rat calcitonin receptor (Assay VIII)
Numbered stars: 1 amine (or outer) side, 2 acyl side, 3 side chain; on linkers, the order of the positions; unused ones are H or OH. Bridge positions count the residues as written; N and C are the ends. Side chains are listed from the residue outwards. Ends that are not written are not given here. * marks the point of attachment. C20 diacid = O=C(O)CCCCCCCCCCCCCCCCCCC(=O)*; γGlu = O=C(O)[C@H](CCC(=O)[*:2])N[*:1]
property: IC50 (µM)

[[record]]
binder = "K([γGlu-γGlu-C20 diacid])CNTATCATQRLAEFLRHSSNNPGAILSSTNVGPETY-NH2 (disulfide 2-7)"
property = "IC50"
meas_value = 0.0868

[[record]]
binder = "KCNTATCATQRLADFLRHSSPNFGAIPSSTNVGSRTY-NH2 (disulfide 2-7) [[Asp14,Arg17,Pro21,Pro27,Arg35]-h-amylin]"
property = "IC50"
meas_value = 0.0309

[[record]]
binder = "K([γGlu-γGlu-C20 diacid])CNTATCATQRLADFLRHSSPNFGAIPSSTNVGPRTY-NH2 (disulfide 2-7, also called compound 130)"
property = "IC50"
meas_value = 0.223

